- TARGET_OR_TEST_SYSTEM: Hck (UniProt P08631)
- Sequence (P08631 whole entry, looked up): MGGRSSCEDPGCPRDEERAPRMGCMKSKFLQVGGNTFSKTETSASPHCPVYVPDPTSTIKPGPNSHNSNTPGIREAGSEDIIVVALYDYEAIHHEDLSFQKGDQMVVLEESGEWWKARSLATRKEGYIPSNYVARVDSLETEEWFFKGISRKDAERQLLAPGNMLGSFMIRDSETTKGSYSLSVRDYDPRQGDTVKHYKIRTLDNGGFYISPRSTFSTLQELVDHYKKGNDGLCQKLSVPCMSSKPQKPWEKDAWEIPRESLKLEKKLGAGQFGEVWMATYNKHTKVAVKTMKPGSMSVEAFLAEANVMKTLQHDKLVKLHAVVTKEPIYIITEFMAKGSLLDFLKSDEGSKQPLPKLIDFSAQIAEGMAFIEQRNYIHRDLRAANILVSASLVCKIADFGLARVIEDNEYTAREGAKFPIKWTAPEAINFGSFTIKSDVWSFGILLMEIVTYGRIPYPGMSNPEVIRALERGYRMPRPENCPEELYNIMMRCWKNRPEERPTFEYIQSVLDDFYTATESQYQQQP
- METHOD_NOTES: phosphorylation enrichment, bacterial display (enrichment ratio); higher = better substrate or ligand; peptides without Tyr show the background
Please use Condition met whenever phosphorylation enrichment is not below 0.7, and Condition not met whenever it is.

Completed entries (count: 4):
LLQKTYNYNVL [SLC4A1_Y553_P548L] = Condition met
ELANYYKLHHI [AK7_Y391] = Condition met
VRFTEYETQVK [TARDBP_Y155] = Condition not met
CEHRGYLFLAI [TEK_Y897_YF] = Condition not met

// switching to the query sequence
Query block: Could you verify whether the entry AVRVFYRKCPR [EPHB2_Y194] shows phosphorylation enrichment of no less than 0.7?
Result block: Condition not met

----------
- TARGET_OR_TEST_SYSTEM: Grb2 SH2 (UniProt P62993)
- Sequence (P62993 whole entry, looked up): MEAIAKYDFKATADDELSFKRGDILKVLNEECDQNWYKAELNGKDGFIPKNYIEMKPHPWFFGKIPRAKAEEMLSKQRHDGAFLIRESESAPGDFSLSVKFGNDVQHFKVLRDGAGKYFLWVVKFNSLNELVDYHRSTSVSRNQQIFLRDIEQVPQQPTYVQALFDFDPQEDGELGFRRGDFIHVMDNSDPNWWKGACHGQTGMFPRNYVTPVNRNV
- METHOD_NOTES: SH2 binding enrichment of the phosphorylated peptide, bacterial display (enrichment ratio); higher = better substrate or ligand; peptides without Tyr show the background
PROPERTY_NAME: SH2 binding enrichment
Please reply with the number alone, leaving off any unit.

These solved cases illustrate the format of a correct answer.
EHLNRYISDTF [TTLL10_Y446] = 0.9
KPFRVYCDMNT [FGB_Y269_YF] = 0.783
RNEAFYDTFST [EFCAB3_Y372_S370A] = 1.05
FDCKWYIPLTD [BCR_Y756_YF] = 0.772
MTRDIYRASFF [ALK_Y1278_A1274T_YF] = 0.811

From here, focus on the item given below.
Query block: Record request: SH2 binding enrichment value, item KVMANYMFKAG [MAML2_Y513_YF]
Result block: 0.934

----------
Below, each of the sequences is paired with its reported SH2 binding enrichment value.
- TARGET_OR_TEST_SYSTEM: c-Src SH2
- METHOD_NOTES: SH2 binding enrichment of the phosphorylated peptide, bacterial display (enrichment ratio); higher = better substrate or ligand; peptides without Tyr show the background
Just the number, please, no unit after it.

Query block: Looking for the measured SH2 binding enrichment of DLAAQYTTVGR [SGSH_Y240] , can you help?
Result block: 3.41

Query block: I would be grateful if you could share the reported SH2 binding enrichment for SGSFRYGSSCE [SELE_Y390] .
Result block: 0.528

Query block: Which measured SH2 binding enrichment value corresponds to AACQHYGVHTC [NR4A2_Y275_R278H] ?
Result block: 0.584

----------
- TARGET_OR_TEST_SYSTEM: Hck (UniProt P08631)
- METHOD_NOTES: phosphorylation enrichment, bacterial display (enrichment ratio); higher = better substrate or ligand; peptides without Tyr show the background
Would you mind sorting the entries by phosphorylation enrichment according to these classes? low (below 0.5), moderate (0.5 to below 0.6), high (0.6 or more)

Use these answered entries as a reference point.
SGRSGYCLGTR [SCO1_Y60_P58S] = low
SIFKDYFRFNF [PLA2G2D_Y85_YF] = low
DALDNYVIRGV [PCCA_Y473] = low
VGQRPYQPLPE [REEP3_Y170] = low
DHFNQYEQQKM [CHD7_Y75_YF] = low

Query block: Dear colleague, I would appreciate it if you could identify the bin for GVSFIYTIDGS [DCX_Y105_R102S_YF] and reply at your convenience.
Result block: high

Query block: Which phosphorylation enrichment band matches RSSKMYFKTRS [LPL_Y329_L330F] ?
Result block: high

Query block: Form field 'band' for RNYDTYTAGLS [RHBDD1_Y264]
Result block: high

Query block: Band for the recorded phosphorylation enrichment of KWRGQYDVANK [BTK_Y425_I429N] ?
Result block: low

Query block: Which bin should I file TGDFGYRTPGY [TNS2_Y668_A670T] under?
Result block: low

----------
- System: AncSZ
- METHOD_NOTES: phosphorylation enrichment, bacterial display (enrichment ratio); higher = better substrate or ligand; peptides without Tyr show the background
PROPERTY_NAME: phosphorylation enrichment
Form field (numeric): enter value without unit.

Below, 5 sequences whose answers are already recorded.
DSSIRYLQEIH [FGG_Y135_Y140H] = 0.597
DENWFYMRAAS [RPS19_Y54_T55M] = 1.35
NALVQYQEMEK [BBS4_Y395_A393V] = 0.978
MNKNAYHNVTA [ST3GAL6_Y306] = 0.524
TGNGFYFRVFS [MYBPC3_Y1136_I1131T_YF] = 1.1

Query block: Please look up its phosphorylation enrichment: GGPAEYLRRAS [PKLR_Y38_G37E]
Result block: 0.954

Query block: Entry FEPWVYSFSFE [PRKDC_Y647_YF] has what phosphorylation enrichment?
Result block: 1.59

Query block: Fill in: phosphorylation enrichment of GHGEEYPAAGA [NOTCH3_Y2221] is ___
Result block: 0.682

Query block: Need phosphorylation enrichment of IKGIRYLHHQG [GUCY2D_Y656_R660Q] , thanks.
Result block: 0.684

Query block: Query (sequence): LANNEYYFRVC ; field requested: phosphorylation enrichment
Result block: 1.6

Query block: Name the recorded phosphorylation enrichment for FAKTQYPDIYA [CRX_Y63_V66I] .
Result block: 0.518

Query block: May I ask what phosphorylation enrichment has been recorded for KSPDSYQKILF [ATM_Y1415_L1420F] ?
Result block: 0.567

Query block: Which phosphorylation enrichment value belongs to PSPMPCASCQM [FOXL2_Y215_Y215C] ?
Result block: 0.541

Query block: Given the entry RSAGKYDVFLI [MECP2_Y120_YF] , report its measured phosphorylation enrichment.
Result block: 0.558

Query block: What does the data say about its phosphorylation enrichment? Entry: KELSNYKHLTL [SLIT2_Y776]
Result block: 0.571

----------
- System: c-Abl (mouse)
- METHOD_NOTES: phosphorylation enrichment, bacterial display (enrichment ratio); higher = better substrate or ligand; peptides without Tyr show the background
Note that class boundaries on phosphorylation enrichment are LOW (below 0.6), MID (0.6 to below 0.9), HIGH (0.9 or more)

The following sequences have reported results that may help.
IHETTYKSIMK [ACTA1_Y281_N282K] = LOW
YSQNICIQNRN [PKP2_Y631_Y631C] = MID
PIFLFYLMDLS [ITGB2_Y131_D128Y_YF] = HIGH
TTEHIYGDKFF [UBA7_Y524_N527K] = MID
FIRRDYEACKA [BBS4_Y48_K46R_YF] = LOW
IFQASYFRRGD [LTK_Y676_R673Q_YF] = MID

Query block: Class label required: LLTALYFISWG [KCNH2_Y780_R784W]
Result block: HIGH

Query block: # bin lookup: classify SIKNKYVTALF [KCNH2_Y611_D609N_YF] by its phosphorylation enrichment
Result block: LOW

Query block: Into which category would you place RSAGKYDVFLI [MECP2_Y120_YF] ?
Result block: MID

Query block: Hi there! Could you help me figure out the category for VSGIPYGQPKQ [NEU1_Y251] please?
Result block: LOW

----------
- TARGET_OR_TEST_SYSTEM: MERTK (UniProt Q12866)
- Sequence (Q12866 whole entry, looked up): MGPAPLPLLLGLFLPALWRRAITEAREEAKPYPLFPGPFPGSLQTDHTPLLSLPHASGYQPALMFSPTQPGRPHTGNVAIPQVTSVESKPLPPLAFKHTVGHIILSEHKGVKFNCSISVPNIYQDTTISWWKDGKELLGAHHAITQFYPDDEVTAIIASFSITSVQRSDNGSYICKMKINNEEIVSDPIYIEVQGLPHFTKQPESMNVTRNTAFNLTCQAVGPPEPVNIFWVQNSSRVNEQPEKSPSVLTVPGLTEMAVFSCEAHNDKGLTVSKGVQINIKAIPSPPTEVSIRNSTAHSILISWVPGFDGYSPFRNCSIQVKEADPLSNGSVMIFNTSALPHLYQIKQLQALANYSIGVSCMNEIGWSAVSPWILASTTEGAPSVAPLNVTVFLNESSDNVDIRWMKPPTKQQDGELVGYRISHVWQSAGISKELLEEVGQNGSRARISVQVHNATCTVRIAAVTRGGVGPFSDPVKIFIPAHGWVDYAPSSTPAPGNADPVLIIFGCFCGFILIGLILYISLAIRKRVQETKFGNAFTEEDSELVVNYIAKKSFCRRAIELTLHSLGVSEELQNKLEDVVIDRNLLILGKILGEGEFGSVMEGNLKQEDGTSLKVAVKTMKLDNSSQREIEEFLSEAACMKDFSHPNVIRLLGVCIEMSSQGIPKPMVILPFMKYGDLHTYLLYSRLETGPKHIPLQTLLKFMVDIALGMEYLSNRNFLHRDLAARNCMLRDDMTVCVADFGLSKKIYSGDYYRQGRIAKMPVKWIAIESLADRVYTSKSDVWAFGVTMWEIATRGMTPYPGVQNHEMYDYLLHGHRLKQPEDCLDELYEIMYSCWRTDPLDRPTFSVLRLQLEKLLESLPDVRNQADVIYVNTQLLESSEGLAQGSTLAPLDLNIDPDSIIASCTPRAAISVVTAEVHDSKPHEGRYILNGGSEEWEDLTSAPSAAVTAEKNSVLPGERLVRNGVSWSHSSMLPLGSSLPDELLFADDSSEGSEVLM
- METHOD_NOTES: phosphorylation enrichment, bacterial display (enrichment ratio); higher = better substrate or ligand; peptides without Tyr show the background
Label Y when phosphorylation enrichment >= 0.4; otherwise N.

// known answers, use as guide
EEQKKYFNAMK [SCN5A_Y1494_YF] = Y
VEDDMYRKTCT [XPA_Y257_L252V] = Y
PYRFIYMAVQH [PTPN11_Y515_Q510P] = Y
KELAKYFKLHH [AK7_Y390_N389K_YF] = Y
RGRSTYFWPRP [GAGE12J_Y9_YF] = Y

# next sequence below
Query block: Kindly determine if phosphorylation enrichment recorded for EHVMPYAANKN [GRIN2A_Y1431] is above or exactly 0.4.
Result block: N

----------
- Tested on: c-Abl (mouse)
- METHOD_NOTES: phosphorylation enrichment, bacterial display (enrichment ratio); higher = better substrate or ligand; peptides without Tyr show the background
Reported phosphorylation enrichment values for a set of sequences
Just the number, please, no unit attached.

DPHQQYYIAMD [TBX15_Y159] = 0.59
KSPDSYQKILF [ATM_Y1415_L1420F] = 0.511
NESVDYRATFP [MET_Y1003] = 0.591
EFKKKYSDADI [CKAP5_Y1860_YF] = 0.464
PGRRFYVVACD [RNASE3_Y134] = 1.24
VTGWGYRKLRD [F11_Y521] = 0.477
NYDLDYDSVQP [MYC_Y16] = 1.02
RRIHSNRGHLW [VHL_Y112_Y112N] = 0.825

Query block: Please give the measured phosphorylation enrichment for this sequence: EPTPGYEVGQR [TSC2_Y1788]
Result block: 0.602

Query block: Fill in the blank: the reported phosphorylation enrichment of SLQFEYVHYGG [CDC14A_Y591_S589F] is ____.
Result block: 0.405
